# reported Emax; entries follow
target: κ-opioid receptor (Homo sapiens (Human)); experiment: κ-opioid receptor functional assay (U-2 OS cells); type: biochemical; conditions: U-2 OS cells; relative to U69,593
Expressed in %, but write only the number.

Consider the following illustrative entries.
>>> readout_value("COc1ccc2c(c1)[C@]13CCN(CC4CC4)[C@H](C2)[C@]12CC[C@](O)(C3)C(=O)O2 [Compound 4]")
105
>>> readout_value("COc1ccc2c(c1)[C@]13CCN(CC4CC4)[C@H](C2)[C@]12CC[C@@](N(C)C)(CO2)C3 [Compound 28]")
107
>>> readout_value("COc1ccc2c(c1)[C@]13CCN(CC4CC4)[C@H](C2)[C@]12CC[C@@](NCC1CCCCC1)(CO2)C3 [Compound 11]")
101

// next item, Emax requested
Qu. For the record COc1ccc2c(c1)[C@]13CCN(CC4CC4)[C@H](C2)[C@]12CC[C@@](N1CCCC1)(CO2)C3 [Compound 32] , what value of Emax is listed for κ-opioid receptor (Homo sapiens (Human))?
Ans. 104

----------
Molecular target: μ-opioid receptor (Homo sapiens (Human), UniProt P35372)
Experiment: μ-opioid receptor radioligand dose-displacement binding assay (HEK-293 cells)
Procedure: Radioligand dose-displacement binding assays for μ-opioid receptors used 0.3 nM [^3H]-diprenorphine (Perkin Elmer, Shelton, Conn.), with […] membrane protein/well in a final volume of 500 μl binding buffer (10 mM MgCl2, 1 mM EDTA, 5% DMSO, 50 mM HEPES, pH 7.4). […] BetaScint scintillation cocktail (Perkin Elmer, Shelton, Conn.) was added (50 μl/well), and plates were counted using a Packard Top-Count for 1 min/well. […]
pKi: −log10 of the molar value.
So basically: pKi at 8 or higher? That is 1. Lower than 8? That is 0.

// known answers, use as guide
>>> assigned_class("COc1ccc2c(c1)[C@]13CCN(CC4CC4)[C@H](C2)[C@]12CC[C@@](N(Cc1ccccc1)Cc1ccccc1)(CO2)C3 [Compound 7]")
0
>>> assigned_class("CC(C)(C)C(=O)N[C@]12CC[C@@]3(OC1)[C@H]1Cc4ccc(O)cc4[C@@]3(CCN1CC1CC1)C2 [Compound 26]")
1
>>> assigned_class("COc1ccc2c(c1)[C@]13CCN(CC4CC4)[C@H](C2)[C@]12CC[C@@](N)(CO2)C3 [Compound 8]")
0
>>> assigned_class("COc1ccc2c(c1)[C@]13CCN(CC4CC4)[C@H](C2)[C@]12CC[C@@](NCC1CCCCC1)(CO2)C3 [Compound 11]")
1
>>> assigned_class("COc1ccc2c(c1)[C@]13CCN(CC4CC4)[C@H](C2)[C@]12CC[C@](O)(C3)C(=O)O2 [Compound 4]")
0
>>> assigned_class("COc1ccc2c(c1)[C@]13CCN(CC4CC4)[C@H](C2)[C@]12CC[C@](N)(C3)C(=O)O2 [Compound 3]")
0
>>> assigned_class("COc1ccc2c(c1)[C@]13CCN(CC4CC4)[C@H](C2)[C@]12CC[C@@](NS(=O)(=O)c1ccc(Cl)cc1)(CO2)C3 [Compound 24]")
1
>>> assigned_class("COc1ccc2c(c1)[C@]13CCN(CC4CC4)[C@H](C2)[C@]12CC[C@@](NCc1ccccc1)(CO2)C3 [Compound 10]")
0

Qu. Could you tell me if the measured pKi of COc1ccc2c(c1)[C@]13CCN(CC4CC4)[C@H](C2)[C@]12CC[C@@](NC(=O)C(C)(C)C)(CO2)C3 [Compound 21] reaches 8 or more?
Ans. 0

Qu. Please indicate if the recorded pKi for COc1ccc2c(c1)[C@]13CCN(CC4CC4)[C@H](C2)[C@]12CC[C@@](NC(=O)CC(F)(F)F)(CO2)C3 [Compound 23] meets or exceeds 8.
Ans. 0

Qu. Could you tell me if the measured pKi of COc1ccc2c(c1)[C@]13CCN(CC4CC4)[C@H](C2)[C@]12CC[C@@](NC(=O)c1ccc(Cl)cc1)(CO2)C3 [Compound 20] reaches 8 or more?
Ans. 0

Qu. Does COc1ccc2c(c1)[C@]13CCN(CC4CC4)[C@H](C2)[C@]12CC[C@@](NC(=O)c1ccccc1)(CO2)C3 [Compound 18] have a reported pKi of at least 8?
Ans. 0

Qu. Dear colleague, could you confirm whether COc1ccc2c(c1)[C@]13CCN(CC4CC4)[C@H](C2)[C@]12CC[C@@](NC(=O)C1CC1)(CO2)C3 [Compound 22] has pKi at or above 8?
Ans. 0

----------
biological target: κ-opioid receptor (Homo sapiens (Human)); assay: κ-opioid receptor functional assay (U-2 OS cells); assay type: biochemical
value-kind: EC50 (nM)
Kindly answer with a numeric value in nM, unit omitted.

>>> readout_value("O=C(N[C@]12CC[C@@]3(OC1)[C@H]1Cc4ccc(O)cc4[C@@]3(CCN1CC1CC1)C2)c1ccccc1")
0.028
>>> readout_value("COc1ccc2c(c1)[C@]13CCN(CC4CC4)[C@H](C2)[C@]12CC[C@@](NS(=O)(=O)c1ccc(Cl)cc1)(CO2)C3")
0.11
>>> readout_value("N[C@]12CC[C@@]3(OC1)[C@H]1Cc4ccc(O)cc4[C@@]3(CCN1CC1CC1)C2")
0.3

Qu. Look up EC50 with κ-opioid receptor (Homo sapiens (Human)) for this compound: COc1ccc2c(c1)[C@]13CCN(CC4CC4)[C@H](C2)[C@]12CC[C@@](N)(CO2)C3
Ans. 34.5

Qu. Missing value: EC50, κ-opioid receptor (Homo sapiens (Human)), entry COc1ccc2c(c1)[C@]13CCN(CC4CC4)[C@H](C2)[C@]12CC[C@@](NCC1CCCCC1)(CO2)C3 . Fill in?
Ans. 0.042

Qu. What measured EC50 is associated with COc1ccc2c(c1)[C@]13CCN(CC4CC4)[C@H](C2)[C@]12CC[C@](N)(C3)C(=O)O2 on κ-opioid receptor (Homo sapiens (Human))?
Ans. 807

Qu. Given the entry COc1ccc2c(c1)[C@]13CCN(CC4CC4)[C@H](C2)[C@]12CC[C@@](NC(=O)CC(F)(F)F)(CO2)C3 , what EC50 was observed with κ-opioid receptor (Homo sapiens (Human))?
Ans. 1.79

----------
target: μ-opioid receptor (Homo sapiens (Human), UniProt P35372); assay: μ-opioid receptor [35S]GTPγS functional assay (HEK-293 cells); format: biochemical
value-kind: log10 of EC50 (log10 of the value in nM)
Hi team, quick reminder: these entries are log10 of EC50 (nM).

Qu. Query (compound): COc1ccc2c(c1)[C@]13CCN(CC4CC4)[C@H](C2)[C@]12CC[C@@](Nc1ccccc1)(CO2)C3 [Compound 30] ; field requested: log10 of EC50
Ans. 1.92

Qu. Returns the measured log10 of EC50 for the input compound. Input: CN1CC[C@]23C[C@@]4(N)CC[C@@]2(OC4)[C@H]1Cc1ccc(O)cc13 [Compound 35]
Ans. 2.46

Qu. Need log10 of EC50 of COc1ccc2c(c1)[C@]13CCN(CC4CC4)[C@H](C2)[C@]12CC[C@@](N1CCCC1)(CO2)C3 [Compound 32] , thanks.
Ans. 3.14

Qu. Reported log10 of EC50 for COc1ccc2c(c1)[C@]13CCN(CC4CC4)[C@H](C2)[C@]12CC[C@@](NC(=O)c1ccc(Cl)cc1)(CO2)C3 [Compound 20] : what is it?
Ans. 1.72

Qu. Sample COc1ccc2c(c1)[C@]13CCN(CC4CC4)[C@H](C2)[C@]12CC[C@@](N1CCOCC1)(CO2)C3 [Compound 31] — what was its log10 of EC50?
Ans. 2.95

----------
biological target: μ-opioid receptor (Homo sapiens (Human)); experiment: μ-opioid receptor [35S]GTPγS functional assay (HEK-293 cells); assay type: biochemical
Let's look at some molecules and their measured EC50.
The number alone won't do; follow it with the unit.

Example cases with answers are listed next.
>>> readout_value("O=C(N[C@]12CC[C@@]3(OC1)[C@H]1Cc4ccc(O)cc4[C@@]3(CCN1CC1CC1)C2)c1ccccc1")
"0.00058 µM"
>>> readout_value("COc1ccc2c(c1)[C@]13CCN(CC4CC4)[C@H](C2)[C@]12CC[C@@](NC(=O)C(C)(C)C)(CO2)C3")
"0.359 µM"
>>> readout_value("COc1ccc2c(c1)[C@]13CCN(CC4CC4)[C@H](C2)[C@]12CC[C@@](NC(=O)CCc1ccccc1)(CO2)C3")
"0.0412 µM"

Shift focus to the following entry.
Qu. // EC50 lookup, key: COc1ccc2c(c1)[C@]13CCN(CC4CC4)[C@H](C2)[C@]12CC[C@@](NC(=O)c1ccccc1)(CO2)C3
Ans. 0.175 µM

----------
biological target: μ-opioid receptor (Homo sapiens (Human)); assay: μ-opioid receptor radioligand dose-displacement binding assay (HEK-293 cells)
value-kind: Ki (nM)
Please state the figure in nM; there is no need to write the unit.

Qu. Which measured Ki belongs to N[C@]12CC[C@@]3(OC1)[C@H]1Cc4ccc(O)cc4[C@@]3(CCN1CC1CC1)C2 [Compound 17] , tested on μ-opioid receptor (Homo sapiens (Human))?
Ans. 0.79

Qu. Could you share what Ki was measured for O=C(N[C@]12CC[C@@]3(OC1)[C@H]1Cc4ccc(O)cc4[C@@]3(CCN1CC1CC1)C2)c1ccccc1 [Compound 27] , tested on μ-opioid receptor (Homo sapiens (Human))?
Ans. 0.019

Qu. Which measured Ki belongs to COc1ccc2c(c1)[C@]13CCN(CC4CC4)[C@H](C2)[C@]12CC[C@@](NC(=O)CCc1ccccc1)(CO2)C3 [Compound 19] , tested on μ-opioid receptor (Homo sapiens (Human))?
Ans. 9.26
